# credit: patent US10227312B2

- STUDY_SYSTEM: glucosylceramide synthase (GCS) (Canis lupus familiaris)
- Sequence (A0A8I3MXG6 1-394): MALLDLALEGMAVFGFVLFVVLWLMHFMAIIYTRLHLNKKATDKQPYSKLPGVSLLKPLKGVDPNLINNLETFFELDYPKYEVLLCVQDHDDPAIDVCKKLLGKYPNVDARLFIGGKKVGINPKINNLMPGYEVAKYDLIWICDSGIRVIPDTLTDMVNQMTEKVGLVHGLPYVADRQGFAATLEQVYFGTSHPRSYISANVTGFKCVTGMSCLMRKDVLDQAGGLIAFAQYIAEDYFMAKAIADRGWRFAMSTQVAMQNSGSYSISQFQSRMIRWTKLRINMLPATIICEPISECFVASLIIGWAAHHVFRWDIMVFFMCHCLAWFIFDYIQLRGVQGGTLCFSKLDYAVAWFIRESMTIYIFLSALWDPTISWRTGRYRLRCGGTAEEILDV
- ASSAY_SUMMARY: GCS Enzymatic Assay (MDCK lysates)
- SETTINGS: MDCK cell lysate, C6-NBD-Ceramide, 37° C. for 1 hour, LC/MS; read-out: Assay 1 (Enzyme Assay; MDCK lysates) IC50
pIC50: −log10 of the molar value.
VALUE_TYPE: pIC50

Reported pIC50 (glucosylceramide synthase (GCS) (Canis lupus familiaris)) for entry O=C(N[C@H](CN1CCCC1)[C@H](O)c1ccc(OC2CC2)c(Cl)c1)C1=NOCc2c1ccc1sc(Cl)cc21 [Example 32] is > 8.00

###

- STUDY_SYSTEM: glucosylceramide synthase (GCS) (Canis lupus familiaris)
- ASSAY_SUMMARY: GCS Enzymatic Assay (MDCK lysates)
- SETTINGS: MDCK cell lysate, C6-NBD-Ceramide, 37° C. for 1 hour, LC/MS; read-out: Assay 1 (Enzyme Assay; MDCK lysates) IC50
Form field: IC50 (one value per entry).

Answered examples (5):
>  <COMPOUND>
O=C(N[C@H](CN1CCC1)[C@H](O)c1ccc(OC2CC2)c(Cl)c1)C1=NOCc2c1ccc1ccccc21

>  <REPORTED_RESULT>
< 10 nM

$$$$
>  <COMPOUND>
O=C(N[C@H](CN1CCCC1)[C@H](O)c1ccc(OC2CC2)c(F)c1)C1=NOCc2c1ccc1cc(Cl)sc21

>  <REPORTED_RESULT>
< 10 nM

$$$$
>  <COMPOUND>
O=C(N[C@H](CN1CCC1)[C@H](O)c1ccc(OC2CC2)c(F)c1)C1=NOCc2cc(-c3ccc(Cl)s3)ccc21

>  <REPORTED_RESULT>
< 10 nM

$$$$
>  <COMPOUND>
CC1ON=C(C(=O)N[C@H](CN2CCCC2)[C@H](O)c2ccc(OC3CC3)c(Cl)c2)c2ccc(-c3ccc(F)cc3)cc21 (some centres unmarked)

>  <REPORTED_RESULT>
10 to 100 nM

$$$$
>  <COMPOUND>
CN(C(=O)C1=NOCc2cc(-c3ccc(F)cc3)ccc21)[C@H](CN1CCC1)[C@H](O)c1ccc(OC2CC2)c(Cl)c1

>  <REPORTED_RESULT>
10 to 100 nM

$$$$

// recorded IC50 for O=C(N[C@H](CN1CCCC1)[C@H](O)c1ccc(OC2CC2)c(Cl)c1)C1=NOCc2cc(-c3ccc(F)cc3)ccc21 : < 10 nM

// recorded IC50 for O=C(N[C@H](CN1CCC1)[C@H](O)c1ccc(OC2CC2)c(F)c1)C1=NOCc2c1sc1cc(Cl)ccc21 : 100 to 1000 nM

// recorded IC50 for O=C(N[C@H](CN1CCCC1)[C@H](O)c1ccc(OC2CC2)c(Cl)c1)C1=NOCc2c1ccc1ncccc21 : < 10 nM

###

Form field: pIC50 (one value per entry).
- STUDY_SYSTEM: glucosylceramide synthase (GCS) (Canis lupus familiaris)
- ASSAY_SUMMARY: GCS Enzymatic Assay (MDCK lysates)
- SETTINGS: MDCK cell lysate, C6-NBD-Ceramide, 37° C. for 1 hour, LC/MS; read-out: Assay 1 (Enzyme Assay; MDCK lysates) IC50
- Procedure: Madin-Darby canine kidney (MDCK) cell lysate was prepared using M-PER Mammalian Protein Extraction Reagent (Thermal Scientific) in the presence of a protease inhibitor cocktail (Roche). Protein concentration was determined using BCA assay kit (Pierce). […] The quantitative analysis of NBD-Ceramide and glucosylceramide was performed on a Shimadzu ultra-fast liquid chromatography (Shimadzu, Japan) coupled with API 4000 triple quadrupole mass spectrometer (Applied Biosystems, Concord, Ontario, Canada). […]
pIC50: −log10 of the molar value.

// recorded pIC50 for O=C(N[C@H](CN1CCCC1)[C@H](O)c1ccc(OC2CC2)c(F)c1)C1=NOCc2c1sc1cc(Cl)ccc21 [Example 12] : 7.00 to 8.00
